# assay: FRG1 promoter luciferase signal modulators, primary screen, FRG1 inhibition for FSHD, cell-based, C2C12 myotubes, firefly/Renilla luciferase, luminescence (AID 1084)
# particulars: higher = more signal, called active from +8 up or from −8 down
Label scheme for z-score: lower than -0.1 is Not fulfilled, -0.1 and above is Fulfilled.

[[record]]
molecule = "COC(=O)c1cn(C[C@@H](Cc2ccccc2)NC(=O)N[C@H](CO)CCc2oc(C(C)=O)c(C(=O)OC)c2C(=O)OC)nn1"
classification = "Not fulfilled"

[[record]]
molecule = "CC(C)C[C@@H]1NC(=O)[C@@H]2C[C@H](C(=O)NCCCCCN)[C@H](c3ccc(O)cc3)N2C1=O"
classification = "Not fulfilled"

[[record]]
molecule = "CCCCCCCCCCC(O)C1C=CC2C(=O)N(C)C(=O)C2N1NC(=O)OC(C)(C)C (stereo not given)"
classification = "Not fulfilled"

[[record]]
molecule = "C=C(COC)C(=O)CC[C@@H](OC(=O)c1cccnc1)c1ccc(OCCO)cc1"
classification = "Not fulfilled"

[[record]]
molecule = "CC=CC(O)C1C=CC2C(=O)N(c3ccccc3)C(=O)C2N1Nc1ccccc1F (stereo not given)"
classification = "Fulfilled"

[[record]]
molecule = "C=CCN1Cc2ccccc2[C@H]2OC(c3ccc(OCCCO)cc3)=N[C@@]2(CC=C)C1=O"
classification = "Not fulfilled"

[[record]]
molecule = "O=C1NC(=O)C2C1C=CC(C(O)c1cccc3ccccc13)N2Nc1ccc(Cl)cc1Cl (stereo not given)"
classification = "Not fulfilled"

[[record]]
molecule = "C=CC[C@]1(C(=O)NCCN2CCOCC2)N=C(c2ccc(OCCCO)cc2)O[C@H]1c1ccccc1CN=[N+]=[N-]"
classification = "Fulfilled"

[[record]]
molecule = "CCOC(=O)C[C@H]1[C@H](OC(=O)c2ccccc2-c2ccccc2)[C@@H](NC(=O)c2ccc(-c3ccccc3)cc2)c2cc(OCCCO)ccc2N1C(=O)c1ccc2ccccc2n1"
classification = "Fulfilled"

[[record]]
molecule = "COc1ccc([Si](C)(C)[C@@H]2[C@@H](CCO)O[C@]3(C(=O)N(Cc4ccc(N5CCCCC5=O)cc4)c4ccccc43)[C@H]2C)cc1"
classification = "Not fulfilled"

[[record]]
molecule = "CC1CC/C=C\\[C@H]2OC34C=CCN(c5ccc(Cl)cc5)C(=O)[C@H]3N(CCCCCO)C(=O)[C@]4(C)C2C(=O)O1 (stereo not given in full)"
classification = "Fulfilled"

[[record]]
molecule = "O=C1c2ccccc2[C@](Cc2ccccc2I)(C(=O)NCC(F)(F)F)[C@H](c2ccc(CO)cc2)N1C1CCCCC1"
classification = "Not fulfilled"

[[record]]
molecule = "C=C(C)c1cc2c(c(CCCCCC)n1)[Si](C(C)C)(C(C)C)OC2"
classification = "Not fulfilled"

[[record]]
molecule = "CN(C)CCCCNC(=O)[C@@H]1C[C@@H]2C(=O)N[C@@H](Cc3ccccc3)C(=O)N2[C@@H]1c1cccc(OCCO)c1"
classification = "Fulfilled"

[[record]]
molecule = "[N-]=[N+]=Nc1ccccc1[C@H]1OC(c2ccc(OCCCO)cc2)=N[C@@]1(CCS(=O)(=O)c1ccccc1)C(=O)NCCN1CCOCC1"
classification = "Fulfilled"

[[record]]
molecule = "CCOC(=O)C[C@H]1[C@H](OC(=O)c2cc3ccccc3oc2=O)[C@@H](NC(=O)c2ccc(-c3ccccc3)cc2)c2cc(OCCCO)ccc2N1C(=O)c1ccc2ccccc2n1"
classification = "Not fulfilled"

[[record]]
molecule = "C=CCC(OC(C)=O)[C@@H]1[C@@H](N(Cc2ccc(-c3ccccc3)cc2)C(=O)Cc2ccc(F)cc2)c2cc(OCCCO)ccc2N1C(=O)Cc1ccc(OC)cc1 (stereo not given in full)"
classification = "Not fulfilled"

[[record]]
molecule = "COc1ccc(-c2cc3c(c(CCc4ccccc4)n2)[Si](C(C)C)(C(C)C)OC3)cn1"
classification = "Fulfilled"

[[record]]
molecule = "CCOc1cc(C(O)C2C=CC3C(=O)N(c4ccccc4)C(=O)C3N2Nc2ccc(C#N)cc2)ccc1O (stereo not given)"
classification = "Fulfilled"

[[record]]
molecule = "CC(=O)NCCCC[C@@H]1NC(=O)[C@H]2C[C@@H](C(=O)NCCCC[N+](C)(C)C)[C@@H](c3cccc(OCCO)c3)N2C1=O"
classification = "Fulfilled"

[[record]]
molecule = "C=CC[C@]1(C(=O)O)COC(c2ccc(OCCCO)cc2)=N1"
classification = "Fulfilled"

[[record]]
molecule = "[N-]=[N+]=NCc1ccccc1[C@H]1OC(c2ccc(OCCCO)cc2)=N[C@@]1(CCS(=O)(=O)c1ccccc1)C(=O)N1CCCCC1"
classification = "Fulfilled"

[[record]]
molecule = "C=C(/C(=C/C[C@H](OC(C)=O)c1cccc(OCCO)c1)c1cnc2ccccc2c1)C(C)C"
classification = "Not fulfilled"

[[record]]
molecule = "C=CCNC(=O)[C@H]1[C@@H]2C(=O)O[C@@H](c3ccccc3)[C@@H](c3ccccc3)N2[C@@H](c2ccc(O)cc2)[C@]12C(=O)N(C(=O)OCCOC)c1ccccc12"
classification = "Not fulfilled"

[[record]]
molecule = "CCCCCCc1nc(C2CC2)cc2c1[Si](C(C)C)(C(C)C)O[C@H]2c1ccccc1"
classification = "Not fulfilled"

[[record]]
molecule = "CC(C)C(=C=CC[C@H](O)c1ccc(OCCO)cc1)C[C@H](O)c1ccccn1"
classification = "Fulfilled"

[[record]]
molecule = "O=C1O[C@@H](c2ccccc2)[C@@H](c2ccccc2)N2[C@@H](c3ccc(O)cc3)[C@]3(C(=O)Nc4ccc(C#CC5(O)CCCCCC5)cc43)[C@@H](C(=O)NC[C@H](O)c3ccccc3)[C@H]12"
classification = "Fulfilled"

[[record]]
molecule = "CO[C@H]1O[C@H](CO)[C@@H](OC(=O)Nc2ccccc2-c2ccccc2)[C@H](OC(=O)Nc2ccc3c(c2)OCO3)[C@H]1OC(=O)Nc1ccc2c(c1)OCO2"
classification = "Fulfilled"

[[record]]
molecule = "O=C(NCC(F)(F)F)[C@@H]1c2ccccc2C(=O)N(Cc2ccc(OC(F)(F)F)cc2)[C@H]1c1ccc(CO)cc1"
classification = "Not fulfilled"

[[record]]
molecule = "CCOC(=O)C[C@H]1[C@H](OC(=O)Cc2ccc3c(c2)OCO3)[C@@H](NC(=O)CC(C)C)c2cc(OCCCO)ccc2N1C(=O)Cc1ccc(OC)cc1"
classification = "Not fulfilled"


====

# assay: small-molecule binders of probe aNOTCH3, primary screen, biochemical, small-molecule microarray, 635/667 nm fluorescence (AID 1120);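 note: probe is a biotin-tagged antibody raised against NOTCH3 rather than NOTCH3 protein; score merges spot fluorescence near 667 nm with spot signal to noise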
# particulars: higher = more signal
Each item that follows carries a reported composite z-score.
quantity: composite z-score

[[record]]
compound = "CC(C)(C)OC(=O)CC[C@@]1(C(=O)NCc2ccccc2)N=C(c2ccc(OCCCO)cc2)O[C@@H]1c1ccccc1N=[N+]=[N-]"
test_value = 0.66

[[record]]
compound = "C=CCC(OC(C)=O)[C@@H]1[C@@H](N(Cc2cc3ccccc3o2)C(=O)Cc2ccc(F)cc2)c2cc(OCCCO)ccc2N1C(=O)c1ccc2ccccc2c1 (some centres undefined)"
test_value = -0.118

[[record]]
compound = "COC(=O)[C@@]1(Cc2ccccc2)[C@H]2c3cc(C(=O)N(C)C)n(Cc4c(CO)[nH]cc(C)c4=O)c3C[C@H]2CN1C(=O)c1ccccc1"
test_value = 0.163

[[record]]
compound = "CC(C)C(=C=CC[C@H](O)c1cccc(OCCO)c1)C[C@H](O)c1cc(Cl)cc(Cl)c1O"
test_value = 0.0916


====

# assay: basal RPMI8226 viability, no added stimulus, profiling panel, cell-based, calcein-AM fluorescence, 48 h, PK04 Diversity Set (AID 1166);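 note: cells grown under basal conditions without added stimulus; test concentration not given here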
# particulars: RPMI8226 myeloma viability, higher = more signal
Could you mark each record satisfied if its z-score falls strictly under -0.8, and not satisfied if it equals or exceeds it?

[[record]]
compound = "COc1ccccc1CN1C(=O)c2ccccc2[C@](Cc2ccccc2I)(C(=O)NCC(F)(F)F)[C@@H]1c1ccc(CO)cc1"
classification = "satisfied"

[[record]]
compound = "O=C(NCC(F)(F)F)[C@@H]1c2ccccc2C(=O)N(Cc2ccccc2C(F)(F)F)[C@H]1c1ccc(CO)cc1"
classification = "not satisfied"

[[record]]
compound = "CC(CO)N1C(=O)[C@@H]2[C@H]3C(=O)OCC=C[C@H]3OC23C=CCN(C(C)(C)C)C(=O)[C@@H]13 (some centres not stated)"
classification = "not satisfied"

[[record]]
compound = "C[C@@H]1ON(c2ccc(C(=O)OC(C)(C)C)cc2)[C@H](c2ccc(O)cc2)[C@H]1C(=O)N1C(=O)OC[C@H]1Cc1ccccc1"
classification = "satisfied"

[[record]]
compound = "[N-]=[N+]=NCc1ccccc1C[C@]1(C(N)=O)N=C(c2ccc(OCCCO)cc2)O[C@H]1c1ccccc1"
classification = "satisfied"

[[record]]
compound = "[N-]=[N+]=NCc1ccccc1C[C@@]1(C(=O)N2CCCCC2)N=C(c2ccc(OCCCO)cc2)O[C@@H]1c1ccccc1"
classification = "satisfied"

